tested.system: HLA-A*02 (Homo sapiens, UniProt P04439, D140Y/D185E/D98H/E176V/E277Q/G131W/G231S/I119V/I121R/I166T/I218V/N151K/N90K/P208A/P217A/Q86G/Q94H/R138H/R169H)
assay.info: MHC binding assay: UV-ligand exchange, beta2m ELISA (peptide exchange yield)
measurement.parameters: binding to HLA-A*02, β2m ELISA
measured.parameter: Peptide exchange (MHC class I binding score, peptide exchange yield)

- substance: "1 (PLWGKVFYL; listed as Homo sapiens) [compound 1]"
  result.value: "++ (20%-49% = ++)"
- substance: "11 (GVLKVFLENV; listed as Homo sapiens) [compound 11]"
  result.value: "++ (20%-49% = ++)"
